test_target: T1, Nluc-IL23R fusion protein (human, UniProt Q5VWK5 22-629)
T1 construct: range 22-629; Stably expressed in HEK293 cells; also called hIL-23R; human IL-23R fused to a Nanoluc luciferase enzyme; not shown: Nanoluc luciferase (Promega N1371 plasmid) at the N-terminus
T1 sequence (looked up): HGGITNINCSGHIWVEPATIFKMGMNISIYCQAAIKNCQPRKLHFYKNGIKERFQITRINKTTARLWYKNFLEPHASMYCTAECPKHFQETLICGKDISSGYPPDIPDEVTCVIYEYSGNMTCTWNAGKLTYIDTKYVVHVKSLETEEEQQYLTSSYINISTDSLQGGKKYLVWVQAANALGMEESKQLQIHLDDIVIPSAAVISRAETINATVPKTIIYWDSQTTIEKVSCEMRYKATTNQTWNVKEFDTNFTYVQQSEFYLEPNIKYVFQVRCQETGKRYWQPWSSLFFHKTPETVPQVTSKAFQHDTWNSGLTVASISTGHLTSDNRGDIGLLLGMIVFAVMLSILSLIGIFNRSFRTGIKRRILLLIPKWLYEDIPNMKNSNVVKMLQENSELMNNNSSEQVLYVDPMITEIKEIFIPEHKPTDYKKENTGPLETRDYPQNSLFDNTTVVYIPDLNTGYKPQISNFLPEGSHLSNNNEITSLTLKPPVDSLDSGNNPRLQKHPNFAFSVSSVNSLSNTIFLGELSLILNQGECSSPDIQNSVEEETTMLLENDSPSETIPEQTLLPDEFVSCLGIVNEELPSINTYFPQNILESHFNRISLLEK
test_summary: BRET displacement of TAMRA-labelled peptide, Nluc-IL23R membranes
*1 amine or outer side, *2 acyl side, *3 side chain or, on linkers, in order; H or OH if unused. Bridges are numbered along the chain shown (N, C = ends). [ ]: non-standard residue; d: D form. 2Nal = N[C@@H](Cc1ccc2ccccc2c1)C(=O)O; αMeL = CC(C)C[C@](C)(N)C(=O)O; CH2COCH2 = O=C(C[*:1])C[*:2]; 3Amb = NCc1cccc(C(=O)O)c1
Each entry below carries its reported Ki.
Lab book: enter the figure in nM, no units written.

Form: binder = Ac-KSCWQCW[2Nal]LER-NH2 (lactam 1-10; linker 3-6 via CH2COCH2) [Compound 18] ; Ki = 2.85

Form: binder = DCSCWQCWWXCR (H-DC(1a)SC(2a)WQC(2a)WW[2-Me-Leu]C(1a)R-[NH2]; (1a)=[2,11] and (2a)=[4,7] 1,3-dithio-propan-2-one bridges) [Compound 1] ; Ki = 79.8

Form: binder = [3Amb]SCWQCW[2Nal][αMeL]ER-NH2 (lactam N-10; linker 3-6 via CH2COCH2; SMILES CC(C)C[C@]1(C)NC(=O)[C@H](Cc2ccc3ccccc3c2)NC(=O)[C@H](Cc2c[nH]c3ccccc23)NC(=O)[C@@H]2CSCC(=O)CSC[C@H](NC(=O)[C@H](CO)NC(=O)c3cccc(c3)CNC(=O)CC[C@@H](C(=O)N[C@@H](CCCNC(=N)N)C(N)=O)NC1=O)C(=O)N[C@@H](Cc1c[nH]c3ccccc13)C(=O)N[C@@H](CCC(N)=O)C(=O)N2) [Compound 40] ; Ki = 18.1

Form: binder = H-DCSCWECWWLCR-NH2 (linker 2-11, 4-7 via CH2COCH2) [Compound 3] ; Ki = 205

Form: binder = Ac-DETCWQCW[2Nal][αMeL]KR-NH2 (lactam 2-11; linker 4-7 via CH2COCH2; SMILES CC(=O)N[C@@H](CC(=O)O)C(=O)N[C@H]1CCC(=O)NCCCC[C@@H](C(=O)N[C@@H](CCCNC(=N)N)C(N)=O)NC(=O)[C@](C)(CC(C)C)NC(=O)[C@H](Cc2ccc3ccccc3c2)NC(=O)[C@H](Cc2c[nH]c3ccccc23)NC(=O)[C@@H]2CSCC(=O)CSC[C@H](NC(=O)[C@H]([C@@H](C)O)NC1=O)C(=O)N[C@@H](Cc1c[nH]c3ccccc13)C(=O)N[C@@H](CCC(N)=O)C(=O)N2) [Compound 57] ; Ki = 68

We now examine a further binder.
Form: binder = Ac-DESCWQCW[2Nal][αMeL]KNG-NH2 (lactam 2-11; linker 4-7 via CH2COCH2; SMILES CC(=O)N[C@@H](CC(=O)O)C(=O)N[C@H]1CCC(=O)NCCCC[C@@H](C(=O)N[C@@H](CC(N)=O)C(=O)NCC(N)=O)NC(=O)[C@](C)(CC(C)C)NC(=O)[C@H](Cc2ccc3ccccc3c2)NC(=O)[C@H](Cc2c[nH]c3ccccc23)NC(=O)[C@@H]2CSCC(=O)CSC[C@H](NC(=O)[C@H](CO)NC1=O)C(=O)N[C@@H](Cc1c[nH]c3ccccc13)C(=O)N[C@@H](CCC(N)=O)C(=O)N2) [Compound 59] ; Ki = 139
